TGI by entry:
tested on: SNB-78 CNS; test: NCI tumour cell line growth inhibition, 48 h
Readout: TGI

{"columns": ["Compound", "Readout", "Experimental Value"],
 "data": [
  ["NC1=NN(c2ccccc2)C(=O)C1C(=O)C(=O)Nc1ccccc1 (configuration not stated)", "TGI", "> 100 µM"],
  ["O=S1Nc2cccc(C(F)(F)F)c2S1 (configuration not stated)", "TGI", "> 100 µM"],
  ["O=C1CCCc2ccc([N+](=O)[O-])c(O)c21", "TGI", "> 100 µM"],
  ["COc1cccc(/C=C2\\CCC(CN(C)C)C2=O)c1 (configuration not stated)", "TGI", "66.5 µM"],
  ["Cc1ccc(NC(=O)C2C3C=CC(O3)C2C(=O)O)cc1 (configuration not stated)", "TGI", "> 100 µM"],
  ["O=C1CCC2(c3ccc(Cl)cc3)Nc3ccccc3N12 (configuration not stated)", "TGI", "> 100 µM"],
  ["C[C@]12Cc3conc3C(O)=C1CC[C@@H]1C2CC[C@@]2(C)C1CC[C@@H]2O (some centres not stated)", "TGI", "> 100 µM"],
  ["O/N=C1/CCCC/C1=C\\c1ccc(Cl)c(Cl)c1", "TGI", "70.5 µM"],
  ["CCOC(=O)C1CC(=O)C=C2CCCCC21 (configuration not stated)", "TGI", "> 100 µM"],
  ["C=CC12CCCCC1CC(C(=O)OC)=C(O)C2 (configuration not stated)", "TGI", "> 100 µM"],
  ["O=C(O)c1cnc2c(ccc3[nH]cccc32)c1=O", "TGI", "> 100 µM"],
  ["CC(C)C1=Cc2ccc3c(c2C(=O)C1=O)CCCC3", "TGI", "11.9 µM"]
]}

* * *

system: NCI-H226 lung; assay: NCI tumour cell line growth inhibition, 48 h; in the data active means GI50 below about 0.43 µM; inactive means the rest
Possible outcomes: t for active, f for inactive

{"columns": ["Record Smiles", "Category Label"],
 "data": [
  ["Cc1ncc(C(=O)Nc2ccc(CN3CCN(C)CC3)c(C(F)(F)F)c2)cc1C#Cc1cnc(N)c2ccc(C#N)cc12", "t"],
  ["CCOC(=O)c1ccc(N2NC(=O)/C(=C/c3ccc([N+](=O)[O-])o3)C2=O)cc1", "f"],
  ["O=C(Nc1ccc(I)cc1F)c1cc(Br)ccc1O", "f"],
  ["O=C1CN=C(c2ccc[nH]2)c2cc(Cl)ccc2N1", "f"],
  ["CCn1nc(C2CCN(C(=O)CCO)CC2)nc1-c1cnc(N)c(-c2nnc(C(C)(C)C)o2)n1", "f"],
  ["CCCCCN(CCCCC)CCC[C@@H](C)[C@H]1CC[C@H]2[C@@H]3[C@H](OCCCN)C[C@@H]4C[C@H](OCCCN)CC[C@]4(C)[C@H]3C[C@H](OCCCN)[C@]12C", "f"],
  ["COc1ccc(Nc2ncc(I)c(NCCCNC(=O)C3CCC3)n2)cc1", "f"],
  ["N=S(c1ccccc1[N+](=O)[O-])c1ccccc1[N+](=O)[O-]", "f"],
  ["CC(C)(C)c1cc(C[P+](c2ccccc2)(c2ccccc2)c2ccccc2)cc(C(C)(C)C)c1O", "f"],
  ["Cc1cccc2c(=O)c3c(sc12)c(NCCCNCCO)nc1ccccc13", "f"],
  ["COc1cccc(/C=N\\NC(=O)c2ccncc2)c1O", "f"],
  ["O=C1OC2(c3ccc(O)cc3Oc3cc(O)ccc32)c2cccc3cccc1c23", "f"],
  ["COc1cc(OC)c(C(=O)/C=C/c2ccc(C#N)cc2)c(OC)c1", "f"]
]}

* * *

test system: HCT-15 colon; assay: NCI tumour cell line growth inhibition, 48 h
TGI by entry:

{"columns": ["Record Smiles", "TGI"],
 "data": [
  ["CCCCCCCCCCCCc1ccc(S(=O)(=O)O)cc1.[Cu+2]", "> 100 µM"],
  ["Clc1ccc(-c2cnc3c(-c4ccnc(N5CCNCC5)c4)cnn3c2)cc1", "5.18 µM"],
  ["CCCCCSc1ccc2nc(NC(=O)OCC)sc2c1", "> 100 µM"],
  ["O=C(COc1ccccc1)NNc1ccccc1", "> 300 µM"],
  ["c1cc(OCCN2CCCC2)ccc1CNc1ccc2nc(CCC3CCCCC3)[nH]c2c1", "3.7 µM"],
  ["O=C(CSCC(=O)N/N=C\\c1ccc(F)cc1F)N/N=C\\c1ccc(F)cc1F", "> 100 µM"]
]}

* * *

GI50 by entry:
system: HCT-15 colon; assay: NCI tumour cell line growth inhibition, 48 h
Readout: GI50

{"columns": ["Compound", "Readout", "Experimental Value"],
 "data": [
  ["Oc1nc(N2CCOCC2)sc1/C=C1\\C=Nc2ccccc21", "GI50", "> 100000 nM"],
  ["O=C(Nc1ccc(I)cc1F)c1cc(Br)ccc1O", "GI50", "743 nM"],
  ["CCOc1ccc(-c2nc3ccc(-c4nc5ccc(N6CCN(C)CC6)cc5[nH]4)cc3[nH]2)cc1", "GI50", "1480 nM"],
  ["Clc1ccc(-c2cnc3c(-c4ccnc(N5CCNCC5)c4)cnn3c2)cc1", "GI50", "2700 nM"],
  ["CCOC(=O)c1ccc(N2NC(=O)/C(=C/c3ccc([N+](=O)[O-])o3)C2=O)cc1", "GI50", "13600 nM"],
  ["CCCCCCCCCCCCCCCCn1cc[n+](C)c1", "GI50", "989 nM"],
  ["N#Cc1c(N)nc2c(c1-c1ccc(Cl)cc1)COc1ccc(F)cc1-2", "GI50", "24100 nM"],
  ["CCc1cc2c(c(OCC(F)(F)F)c(C(=O)NC3CCN(C(=O)CO)CC3)n2C)c(=O)n1CC(=O)c1ccccc1", "GI50", "52300 nM"],
  ["OCC1OC(N2C=C(c3nc4ccccc4s3)C3C=CC=CC32)C(O)C(O)C1O (stereo not given)", "GI50", "31100 nM"],
  ["c1cc(OCCN2CCCC2)ccc1CNc1ccc2nc(CCC3CCCCC3)[nH]c2c1", "GI50", "1550 nM"]
]}

* * *

test system: SN12C renal; assay: NCI tumour cell line growth inhibition, 48 h; in the data active = GI50 below about 0.43 µM; inactive = the rest
Possible outcomes: 1 for active, -1 for inactive

{"columns": ["Compound", "Category Label"],
 "data": [
  ["COc1cc2c(cc1OC)[C@@H]1C(=O)c3ccc4c(c3O[C@@H]1CO2)C[C@H](C(C)C)O4", -1],
  ["c1cc(OCCN2CCCC2)ccc1CNc1ccc2nc(CCC3CCCCC3)[nH]c2c1", -1],
  ["N#Cc1c(N)nc2c(c1-c1ccc(Cl)cc1)COc1ccc(F)cc1-2", -1],
  ["CCCCN(CCCC)P(=O)(Oc1ccccc1)Oc1ccccc1", -1],
  ["COC(=O)CCc1n(Cc2ccc3ccccc3c2)c2ccccc2[n+]1Cc1ccc2ccccc2c1", -1],
  ["OCC1OC(N2C=C(c3nc4ccccc4s3)C3C=CC=CC32)C(O)C(O)C1O (stereo not given)", -1],
  ["COc1cc2c3c(n(CCCN=[N+]=[N-])c(=O)c2cc1OC)-c1ccc(F)cc1C3=O", -1],
  ["CCOc1ccc(-c2nc3ccc(-c4nc5ccc(N6CCN(C)CC6)cc5[nH]4)cc3[nH]2)cc1", 1],
  ["COC(=O)c1c2c(c(C)[n+]([O-])c1C)C(=O)C(NCc1ccccc1)=CC2=O", -1],
  ["O=C1CN=C(c2ccc[nH]2)c2cc(Cl)ccc2N1", -1],
  ["CCCCCSc1ccc2nc(NC(=O)OCC)sc2c1", -1],
  ["CCCN(CCC)c1ccc(/C=N/NC(=O)c2cccnc2)c(C)c1", -1],
  ["CCOc1ccccc1/C=N\\N=C(N/N=C/c1ccccc1OCC)N/N=C/c1ccccc1OCC", -1],
  ["Cc1cc(-c2nc3sc(C)cn3c2/C=N/N=C(N)N)c(C)s1", -1],
  ["COc1ccc(C(=O)/C=C/c2cc(-c3ccc(OC)c(OC)c3)n[nH]2)cc1OC", -1],
  ["Cc1ccc(/C(=N/NS(=O)(=O)c2cc(C)c(Cl)cc2Cl)Sc2cc(Cl)c(C)cc2S(N)(=O)=O)cc1", -1],
  ["COc1cccc(S(=O)(=O)NC2=NCCN2C(=S)SN2CCn3c2nsc3=S)c1", -1],
  ["COc1cc2c3c(n(CCCN=[N+]=[N-])c(=O)c2cc1OC)-c1ccccc1C3=O", -1],
  ["COc1ccc(C2c3ccc4ccccc4c3Oc3ncn(CCCn4ccnc4)c(=N)c32)cc1OC (stereo not given)", -1],
  ["CCn1nc(C2CCN(C(=O)CCO)CC2)nc1-c1cnc(N)c(-c2nnc(C(C)(C)C)o2)n1", -1]
]}
